All values here come from ChEMBL document CHEMBL3431459.

Test: SUPPLEMENTARY: Lipophilicity (log D) Determination by high-throughput shake-flask
Assay type: physicochemical
Settings: octanol/water
ENDPOINT LABEL: logD
The reply should be a number, written without any unit.

| COMPOUND SMILES | ENDPOINT LABEL | REPORTED RESULT |
| --- | --- | --- |
| O=C1COc2cc(C#C[C@H]3CCCCN3C(=O)COc3ccccc3)ccc2N1 | logD | 3.51 |
| CC(C)C(=O)Nc1cccc(-c2n[nH]c([C@H]3CCCCN3C(=O)COc3ccccc3)n2)c1 | logD | 3.32 |
| COc1ccc(Cl)cc1S(=O)(=O)N1CCCc2ccc(Oc3ccc(CC(=O)O)cc3)cc21 | logD | 1.79 |
| COc1ccc(Cl)cc1S(=O)(=O)n1ccc2ccc(C(=O)Nc3ccc(CC(=O)O)cc3)cc21 | logD | 1.1 |

Record COc1ccc(Cl)cc1CN1C(=O)OC(C)(C)c2ccc(C(=O)Nc3nc(CC(=O)O)cs3)cc21 . Reported logD: 1.17

Consider O=C(COc1ccccc1)N1CCCC[C@@H]1c1noc(-c2ccc3[nH]nnc3c2)n1 . Its measured logD is 2.22

In plain terms, COc1ccc(Cl)cc1S(=O)(=O)Nc1cccc(C(=O)Nc2ccc(-c3nnn[nH]3)cc2)c1 has a documented logD of 0.35

Reported logD for COc1ccc(Cl)cc1S(=O)(=O)Nc1cc(C(=O)Nc2ccc(C(=O)O)cc2)cc(OC)c1OC was 0.56

Just so you know, measured logD for COC(=O)[C@H]1CCCC[C@@H]1c1nc([C@H]2CCCCN2C(=O)COc2ccccc2)no1 came out at 2.9

====

Experiment: SUPPLEMENTARY: PAMPA permeability assay
Format: physicochemical
Conditions: read-out: Permeability
ENDPOINT LABEL: Papp (×10⁻⁶ cm/s)
Give the value, in units of ×10⁻⁶ cm/s, as a plain number.

# count of solved cases: 5
| COMPOUND SMILES | Papp, ×10⁻⁶ cm/s |
| --- | --- |
| COc1ccc(Cl)cc1S(=O)(=O)N1CCOc2c(Cl)cc(C(=O)Nc3ccc(CC(=O)O)cc3)cc21 | 3.23 |
| COc1ccc(Cl)cc1S(=O)(=O)N1COc2ccc(C(=O)Nc3ccc(C(=O)O)c(F)c3)cc21 | 1.92 |
| Nc1ccc(-c2noc([C@H]3CCCCN3C(=O)COc3ccccc3)n2)cn1 | 4.44 |
| CCOc1ccc(C(=O)Nc2ccc(C(=O)O)c(F)c2)cc1N(CCS(=O)O)S(=O)(=O)c1cc(Cl)ccc1OC | 0.07 |
| COCCN(C)C(=O)c1cncc(-c2noc([C@H]3CCCCN3C(=O)COc3ccccc3)n2)c1 | 4.13 |

Reported Papp ( NC(=O)c1cccc(-c2n[nH]c([C@H]3CCCCN3C(=O)COc3ccccc3)n2)c1 ) = 2.25

Sure, the documented Papp for COc1ccc(Cl)cc1S(=O)(=O)N1CCc2ccc(C(=O)Nc3ccn(CC(=O)O)n3)cc21 is 0.23

Papp in this record for O=C(Nc1ccc(C(=O)O)c(F)c1)c1ccc2c(c1)N(S(=O)(=O)c1cccc(C(F)(F)F)c1)CCC2 : 2.13

Value of Papp reported for the molecule O=C(O)Cc1csc(NC(=O)c2ccc3c(c2)N(S(=O)(=O)c2cccc(Cl)c2)CC3)n1 is 2.91
